target: HLA-B*08:01; assay: IEDB peptide-MHC binding, purified MHC/direct/fluorescence; filed as Kd, often an IC50 or EC50 that approximates it; bounds were set here for any values at or beyond the usual limits of such assays; settings: source organism: La Crosse virus
ENDPOINT: Kd (µM)
# output: bare number, implied unit µM

Qu. I have this sequence here, YRKPSGGVF , and I need its recorded Kd.
Ans. 0.166

----------
target: HLA-B*48:01; assay: IEDB peptide-MHC binding, purified MHC/direct/fluorescence; filed as Kd, often an IC50 or EC50 that approximates it; bounds were set here for any values at or beyond the usual limits of such assays; settings: source organism: Camelpox virus M-96
ENDPOINT: pKd
Remember the convention: pKd equals -log10 of concentration in molar.

Qu. Report pKd for LEYGANYFL please.
Ans. 5.36

----------
target: HLA-B*15:42; test: IEDB peptide-MHC binding, purified MHC/competitive/fluorescence; filed as Kd, often an IC50 or EC50 that approximates it; bounds were set here for any values at or beyond the usual limits of such assays; conditions: source organism: dengue virus type 1
ENDPOINT: Kd

Qu. // lookup Kd for SEMGANFRA
Ans. ≥ 5 µM

----------
target: HLA-B*07:02; test: IEDB peptide-MHC binding, purified MHC/competitive/fluorescence; filed as Kd, often an IC50 or EC50 that approximates it; bounds were set here for any values at or beyond the usual limits of such assays; settings: source organism: Human immunodeficiency virus 1
ENDPOINT: Kd (µM)
The answer is to be given in µM; state only the numeric part.

Qu. So what does the record say about Kd for EIKSLFNTI ?
Ans. 6

----------
biological target: HLA-B*18:01; assay: IEDB peptide-MHC binding, purified MHC/competitive/fluorescence; filed as Kd, often an IC50 or EC50 that approximates it; bounds were set here for any values at or beyond the usual limits of such assays; conditions: source organism: Bacillus thuringiensis serovar israelensis ATCC 35646
pKd: −log10 of the molar value.
ENDPOINT: pKd

Qu. So what's the measured pKd for this one? ITMYVAFEQ
Ans. ≤ 4.70

----------
target: HLA-B*07:02; assay: IEDB peptide-MHC binding, purified MHC/direct/fluorescence; filed as Kd, often an IC50 or EC50 that approximates it; bounds were set here for any values at or beyond the usual limits of such assays; details: source organism: Influenza A virus (A/Swine/Italy/25823/94(H3N2))
pKd: −log10 of the molar value.
ENDPOINT: pKd

Qu. Recorded pKd of SFSFGGFTF , please.
Ans. ≤ 4.70

----------
molecular target: HLA-B*54:01; experiment: IEDB peptide-MHC binding, purified MHC/competitive/radioactivity; filed as Kd, often an IC50 or EC50 that approximates it; bounds were set here for any values at or beyond the usual limits of such assays; conditions: source organism: Human alphaherpesvirus 2
ENDPOINT: pKd
The meaning of pKd here: minus log10 of the concentration in molar units.

Qu. Request the reported pKd associated with GPHETITAL
Ans. 5.31

----------
biological target: HLA-B*18:01; assay: IEDB peptide-MHC binding, purified MHC/direct/fluorescence; filed as Kd, often an IC50 or EC50 that approximates it; bounds were set here for any values at or beyond the usual limits of such assays; settings: source organism: Dengue virus
ENDPOINT: Kd (nM)
Write it as a number; the unit nM goes unstated.

Qu. Which measured Kd value corresponds to AELTGYGTV ?
Ans. 472

Each recorded value in this set is attributed to the Immune Epitope Database (IEDB).
